In this section we review reported pIC50 values for a set of compounds.
- STUDY_SYSTEM: cathepsin L (Homo sapiens)
- Construct: purchased Abcam
- Sequence (P07711 114-333): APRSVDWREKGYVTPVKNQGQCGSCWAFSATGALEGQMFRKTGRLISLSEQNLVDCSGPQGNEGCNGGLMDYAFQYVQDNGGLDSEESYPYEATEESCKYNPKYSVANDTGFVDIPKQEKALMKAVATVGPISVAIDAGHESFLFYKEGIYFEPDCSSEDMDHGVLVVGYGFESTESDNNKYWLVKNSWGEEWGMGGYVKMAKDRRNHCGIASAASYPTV
- EXPERIMENT_SUMMARY: Cathepsin L inhibition (Cathepsin L Protease Assay Kit, fluorescence)
- Assay type: biochemical
- TEST_SETTINGS: triplicate, mean ± SD
pIC50: −log10 of the molar value.

Example entries and their recorded answers appear below.
COMPOUND	REPORTED_ENDPOINT	RESULT_VALUE
O=C(O[C@@H]1Cc2c(O)cc(O)cc2O[C@@H]1c1cc(O)c(=O)c2c(O)c(O)cc([C@H]3Oc4cc(O)cc(O)c4C[C@H]3O)c2c1)c1cc(O)c(O)c(O)c1 [theaflavin-3-gallate]	pIC50	< 4.00
Oc1cc(O)c2c(c1)OC(c1ccc(O)c(O)c1)C(O)C2 (stereo not drawn) [catechin]	pIC50	< 4.00

Form field: reported pIC50 of O=C(O[C@@H]1Cc2c(O)cc(O)cc2O[C@@H]1c1cc(O)c(=O)c2c(O)c(O)c(O)cc2c1)c1cc(O)c(O)c(O)c1 [epitheaflagallin-3-O-gallate]
< 4.00

Numbers sourced from paper PMC11154727.
